Test system: SW-620 colon
Assay: NCI-60 one-dose screen, 48 h (100 = growth as untreated, 0 = no growth, -100 = all killed)
Conditions: 10 µM
Procedure: Growth inhibition of the SW-620 human tumor cell line is measured as a screen for anti-cancer activity. Cells are grown in 96 well plates and exposed to the test compound for 48 hours. Compounds are tested at a single concentration, which is 10^-5 M for most compounds. The reported endpoint is percent growth (GI% or GIPRCNT), where numbers from 0 - 100% represent growth inhibition, and numbers from -100% - 0 represent cell death. For example, a value of 40 represents 60% growth inhibition. […]
Compounds without any hit were thinned out: in the full panel of roughly 83,000, 20% have a hit.
Reported property: growth (%)
Entry rule: numbers only, all in %.

Take a look at these entries with their results.
Cc1cc(/C=C/c2ccc3cc(N(C)C)ccc3[n+]2C)c(C)n1-c1ccccc1 | 7.4
O=[N+]([O-])c1ccc(Cl)c(S(=O)(=O)O)c1 | 107
COc1ccc2c(NCCCCCCCCNc3c4ccccc4nc4cc(OC)ccc34)c3ccccc3nc2c1 | -100
CCCCCCCCO | 103
COc1ccccc1NC(=O)C1=C(C)NC(C)=C(C(=O)Nc2ccccc2OC)C1c1cccc([N+](=O)[O-])c1 | 88

Please give the documented growth of `Cc1cc(N)ccc1-c1ccc(N)cc1C` 101

###

Tested on: CCRF-CEM leukemia
Assay: NCI-60 one-dose screen, 48 h
Conditions: 10 µM
Compounds without any hit were thinned out: in the full panel of roughly 83,000, 20% have a hit. Active and inactive are the calls of the source. The calls were made as follows: active = growth percent below 10; inactive = the rest.
// one of t = active, f = inactive, no free text

Cc1ccccc1C1N=C2Oc3ccccc3C=C2C(=O)N1 (configuration not stated) | f
CN(C)C(C)(C)CC(C)(C)C | f
COc1cc2cc(OC(C)=O)c3cc4c(cc3c2c(OC)c1OC)OCO4 | t

Moving on to another molecule below.
For `Brc1cnc2ccccc2c1` , which call appears in the assay record? f

###

Test system: LOX IMVI melanoma
Assay: NCI-60 one-dose screen, 48 h (100 = growth as untreated, 0 = no growth, -100 = all killed)
Settings: 10 µM
This is part of a sample that, as a whole, favours compounds with a hit. Of some 83,000 tested, about 20% had one in any assay.
Reported property: growth (%)
Entry rule: numbers only, all in %.

COc1cc2nc3cc([N+](=O)[O-])ccc3c(Cl)c2cc1OC | 105
CC(=O)c1ccc2c(ccc3ccccc32)c1 | 107

Please give the documented growth of `CCO/C=C1\SC(=S)N(c2cccc(C)c2)C1=O` 104

###

growth reference
Test system: NCI-H322M lung
Test: NCI-60 one-dose screen, 48 h (100 = growth as untreated, 0 = no growth, -100 = all killed)
Details: 10 µM
This is part of a sample that, as a whole, favours compounds with a hit. Of some 83,000 tested, about 20% had one in any assay.
Entry rule: numbers only, all in %.

Take a look at these entries with their results.
C/C(O)=C(\C=N\C(N)=S)C(=O)Nc1ccccc1 | 104
O=C(Nc1ccccc1C(=O)NCC1CC1)c1cccs1 | 126
S=c1sc2ccccc2n1CN1CCCCC1 | 99.1
S=C1CCCCCN1 | 99.5
O=C(c1ccc(Cl)cc1)c1ccccc1Cl | 97.9

Please give the documented growth of CCC(C)(C)C1CCC(O)CC1 (centres undefined) 103

Please give the documented growth of `Cc1cc(C)cc(NCCC#N)c1` 118

Please give the documented growth of `N#CCCN(CCCN1CCOCC1)CN1C(=O)c2ccccc2C1=O` 90.8

###

Tested on: KM12 colon
Experiment: NCI-60 one-dose screen, 48 h (100 = growth as untreated, 0 = no growth, -100 = all killed)
Details: 10 µM
The panel holds about 83,000 compounds, 20% with a hit somewhere; the sample as a whole holds those more often. Active and inactive are the calls of the source. The calls were made as follows: active = growth percent below 10; inactive = the rest.
Reported property: growth

NC(CSC(c1ccccc1)(c1ccccc1)c1ccccc1)C(=O)O (configuration not stated) | 22.5% (inactive)
Cc1cc(/C=C/c2ccc3cc(N(C)C)ccc3[n+]2C)c(C)n1-c1ccccc1 | -62.1% (active)
CN(C)c1ccc(CNC(C(=O)c2ccccc2)c2ccccc2)cc1 (configuration not stated) | 98.6% (inactive)
COC(=O)c1ccccc1N(C)C | 107% (inactive)

Please give the documented growth of CC1Cc2ccccc2O1 (configuration not stated) 107% (inactive)

Please give the documented growth of `N#CC(=Nc1cccc(F)c1)C1=C(O)c2ccccc2C1=O` 102% (inactive)

Please give the documented growth of O=S(=O)(O)C(Nc1ccccc1)c1ccccc1 (configuration not stated) 100% (inactive)

###

System: HOP-92 NSCLC
Experiment: NCI-60 one-dose screen, 48 h (100 = growth as untreated, 0 = no growth, -100 = all killed)
Conditions: 10 µM
This is part of a sample that, as a whole, favours compounds with a hit. Of some 83,000 tested, about 20% had one in any assay.
The threshold is inclusive: growth of exactly 90% counts as Fulfilled; values below receive Not fulfilled.

C[N+](C)(C)C(=O)c1ccccc1 | Fulfilled
Cc1ccccc1N=C(c1ccccc1)C1C(=O)c2ccccc2C1=O | Not fulfilled
COc1ccccc1N=Nc1c(O)ccc2cc(S(=O)(=O)O)ccc12 | Not fulfilled
COc1cc2cc(OC(C)=O)c3cc4c(cc3c2c(OC)c1OC)OCO4 | Fulfilled

Moving on to another molecule below.
For this molecule, is measured growth 90% or higher? `CCCCNC(=O)C(=O)NCCCC` Fulfilled

###

Test system: RXF 393 renal
Assay: NCI-60 one-dose screen, 48 h (100 = growth as untreated, 0 = no growth, -100 = all killed)
Conditions: 10 µM
The panel holds about 83,000 compounds, 20% with a hit somewhere; the sample as a whole holds those more often.
Reported property: growth (%)
Entry rule: numbers only, all in %.

Please give the documented growth of CC(C(=O)O)(C1CCCCC1)C1(O)CCCCC1 (configuration not stated) 99.1

Please give the documented growth of COC(=O)C(O)c1ccccc1 (configuration not stated) 111

Please give the documented growth of `Oc1ccccc1-c1nnco1` 74

Please give the documented growth of `C=CCNc1ccccc1` 113

Please give the documented growth of `CO[C@H]1C[C@@H]2CC[C@@H](C)[C@@](O)(O2)C(=O)C(=O)N2CCCC[C@H]2C(=O)O[C@H]([C@H](C)C[C@@H]2CC[C@@H](O)[C@H](OC)C2)CC(=O)[C@H](C)C=C(C)[C@@H](O)[C@@H](OC)C(=O)[C@H](C)C[C@H](C)/C=C/C=C/C=C1C` 14.1

Please give the documented growth of `O=C(NC1CCCCC1)OCc1c(COC(=O)NC2CCCCC2)c(-c2ccc(Cl)c(Cl)c2)n2c1CCC2` -13.6

Please give the documented growth of `Cc1cccc([N+](=O)[O-])c1Cl` 103

###

Tested on: MDA-MB-231 breast
Test: NCI-60 one-dose screen, 48 h (100 = growth as untreated, 0 = no growth, -100 = all killed)
Conditions: 10 µM
About 83,000 compounds went through this panel and 20% of them were active in at least one assay; those are over-represented in the sample as a whole.
growth reference
Entry rule: numbers only, all in %.

CC1CCCC(CC(N)=O)CC1 (configuration not stated) | 103
NC(=S)NN=C1CCCC1 | 95
CCC(=O)Oc1ccc(OC)cc1 | 103
C=C1CC/C=C(\C)C(=O)C[C@@H]2[C@@H]1CC2(C)C | 125
COc1cc([C@@H]2c3cc4c(cc3[C@H](O)[C@H]3COC(=O)[C@H]23)OCO4)cc(OC)c1OC | 10.1

Please give the documented growth of `CC(C)(N)COS(=O)(=O)O` 93.4

Please give the documented growth of CCC/C=C(\C)C(C)(C#N)C(=O)OCC (configuration not stated) 122

###

System: EKVX NSCLC
Experiment: NCI-60 one-dose screen, 48 h (100 = growth as untreated, 0 = no growth, -100 = all killed)
Conditions: 10 µM
The panel holds about 83,000 compounds, 20% with a hit somewhere; the sample as a whole holds those more often.
growth reference
Entry rule: numbers only, all in %.

Take a look at these entries with their results.
C[C@]12CC[C@@H]3c4ccc(OCC(=O)O)cc4CC[C@H]3[C@@H]1CCC2=O | 117
COc1ncnc2c1cnn2C | 100
O=S(=O)(O)C(Nc1ccccc1)c1ccccc1 (configuration not stated) | 104
Cn1cnc2nc(Cl)nc(Cl)c21 | 104

Answer briefly: growth recorded on EKVX NSCLC for `Cc1cc2nc(CC(=O)c3cccc([N+](=O)[O-])c3)c(=O)[nH]c2cc1C` 59.9

Answer briefly: growth recorded on EKVX NSCLC for COc1nc(N)nc2c1ncn2C1OC(CO)CC1O (configuration not stated) 102

Answer briefly: growth recorded on EKVX NSCLC for `Cc1ccc(C(=O)NC2c3ccccc3Oc3ccccc32)cc1` 64.6

Answer briefly: growth recorded on EKVX NSCLC for `Cc1ccccc1N=C(c1ccccc1)C1C(=O)c2ccccc2C1=O` 88.9

Answer briefly: growth recorded on EKVX NSCLC for `CCOc1ccc(Br)cc1/C=N\N=C\c1cc(Br)ccc1OCC` 107

Answer briefly: growth recorded on EKVX NSCLC for `O=[N+]([O-])c1ccc(CO)cc1` 101

Answer briefly: growth recorded on EKVX NSCLC for `N#CCCN(CCCN1CCOCC1)CN1C(=O)c2ccccc2C1=O` 107

Answer briefly: growth recorded on EKVX NSCLC for O=C(O)C(O)c1ccccc1 (configuration not stated) 99.9

Answer briefly: growth recorded on EKVX NSCLC for `NC(=S)N/N=C/c1ccc(N)cc1` 101
